- System Under Test: human β-hexosaminidase [human placenta] (HexA/B)
- Construct: other: human β-hexosaminidase, human placenta; room temperature, thirty minutes
- Experimental Protocol: Determination of IC50 values for inhibition of human β-hexosaminidase
- Experimental Setup: human β-hexosaminidase, human placenta; room temperature, thirty minutes
IC50 by entry:

As a guide, the following entries are already answered.
| Molecule | IC50 |
| --- | --- |
| CCNC(=O)C[C@@H]1[C@@H](O)[C@H](O)[C@@H](CO)N1CCOc1ccc(Cl)cc1Cl [Compound A062] | > 300 µM |
| C=CCNC(=O)C[C@@H]1[C@H](O)[C@H](O)[C@@H](CO)N1CCCCCC [Compound A039] | > 300 µM |
| CCCCCCN1[C@H](CC(=O)NCC(C)C)[C@H](O)[C@H](O)[C@H]1CO [Compound A027] | > 300 µM |
| CCN1[C@H](CC(=O)NC)[C@H](O)[C@H](O)[C@H]1CO [Compound A019] | > 300 µM |
| CNC(=O)[C@H]1N[C@@H](CO)[C@@H](O)[C@@H]1O [Compound A042] | 2.5 µM |

I am curious: what IC50 value has been reported for CCCCCCN1[C@H](CC(=O)NC2CC2)[C@H](O)[C@H](O)[C@H]1CO [Compound A049] ? > 300 µM

I am curious: what IC50 value has been reported for CCCCCCN1[C@H](CC(=O)NC)[C@H](O)[C@H](O)[C@@H]1CO [Compound A036] ? 73 µM

I am curious: what IC50 value has been reported for CC(C)CNC(=O)C[C@@H]1[C@H](O)[C@H](O)[C@@H](CO)N1CCCc1ccccc1 [Compound A026] ? > 300 µM
